Biological target: ZFP SBS#240 (synthetic)
Sequence (chain, as listed by the source): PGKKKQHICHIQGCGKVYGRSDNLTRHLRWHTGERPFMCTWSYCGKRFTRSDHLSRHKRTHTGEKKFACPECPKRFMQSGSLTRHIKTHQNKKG
Test: EMSA
Conditions: tags: MBP fusion
EXPERIMENTAL READOUT: pKd
// pKd: -log10(molar conc.)

Which pKd value belongs to GCAGGGGAG (dsDNA) DNA 1: GCAGGGGAG DNA 2: CTCCCCTGC ? 9.00
